Parameter pIC50: see the listing below.
- Measured Target: DENV NS2B/NS3 (Dengue virus type 2, UniProt P29990)
- Construct: the hydrophilic 40-residue core domain of NS2B (NS2B(H)-NS3pro); The used DENV protease construct contains the protease domain of NS3
- Sequence (P29990 1398-1437): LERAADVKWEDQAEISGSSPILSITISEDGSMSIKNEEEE
- Sequence (P29990 1476-1653): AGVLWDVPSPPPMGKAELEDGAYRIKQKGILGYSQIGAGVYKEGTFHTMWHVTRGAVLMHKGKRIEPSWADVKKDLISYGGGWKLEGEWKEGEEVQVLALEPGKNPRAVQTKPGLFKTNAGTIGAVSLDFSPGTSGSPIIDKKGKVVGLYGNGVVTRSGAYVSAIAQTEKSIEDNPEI
- Assay Procedure: biochemical
pIC50: −log10 of the molar value.

{"Compound": "O=C(Nc1nc2cc(O)c(O)cc2s1)[C@H]1CCCCN1S(=O)(=O)c1cccc([N+](=O)[O-])c1", "pIC50": 4.46}
{"Compound": "O=C(Nc1nc2cc(O)c(O)cc2s1)[C@@H]1CCCN1S(=O)(=O)c1ccccc1C(F)(F)F", "pIC50": 5.29}
{"Compound": "O=C(Nc1nc2cc(O)c(O)cc2s1)[C@H]1CCCCN1S(=O)(=O)c1ccc(C(F)(F)F)cc1", "pIC50": 4.65}
{"Compound": "O=C(Nc1nc2cc(O)c(O)cc2s1)[C@H]1CCCCN1S(=O)(=O)c1ccccc1C(F)(F)F", "pIC50": 4.38}
{"Compound": "O=C(Nc1nc2cc(O)c(O)cc2s1)[C@H]1CCCCN1S(=O)(=O)c1cccc(C(F)(F)F)c1", "pIC50": 4.51}
{"Compound": "O=C(Nc1nc2cc(O)c(O)cc2s1)[C@H]1CCCCN1S(=O)(=O)c1ccc([N+](=O)[O-])cc1", "pIC50": 4.57}
{"Compound": "O=C(Nc1nc2cc(O)c(O)cc2s1)[C@@H]1CCCN1S(=O)(=O)c1cccc(C(F)(F)F)c1", "pIC50": 5.30}
{"Compound": "O=C(Nc1nc2cc(O)c(O)cc2s1)[C@@H]1CCCN1S(=O)(=O)c1ccc([N+](=O)[O-])cc1 [Compound 7, reference compound]", "pIC50": 5.30}
{"Compound": "O=C(Nc1nc2cc(O)c(O)cc2s1)[C@@H]1CCCN1S(=O)(=O)c1ccccc1[N+](=O)[O-]", "pIC50": 5.10}
{"Compound": "O=C(Nc1nc2cc(O)c(O)cc2s1)[C@@H]1CCCN1S(=O)(=O)c1cccc([N+](=O)[O-])c1", "pIC50": 5.19}
{"Compound": "O=C(Nc1nc2cc(O)c(O)cc2s1)[C@H]1CCCCN1S(=O)(=O)c1ccccc1[N+](=O)[O-]", "pIC50": 4.41}
{"Compound": "O=C(Nc1nc2cc(O)c(O)cc2s1)[C@@H]1CCCN1S(=O)(=O)c1ccc(C(F)(F)F)cc1", "pIC50": 5.25}

====

We begin with a simple list: items and their reported inhibition at 25 µM.
- Measured Target: DENV-2 NS2B-NS3 protease (Dengue virus type 2)
- Assay Procedure: DENV2 Reporter Gene Assay (DENV2proHeLa)
- Assay type: cell-based
- Measurement Context: M-HeLa; 25 µM, HeLa reporter cells, 24 h; read-out: DENV2 proHeLa % inhibition at 25 µM

{"Molecule": "O=C(Nc1nc2cc(O)c(O)cc2s1)[C@@H]1CCCCN1S(=O)(=O)c1ccccc1[N+](=O)[O-]", "inhibition at 25 µM (%)": 31.4}
{"Molecule": "O=C(Nc1nc2cc(O)c(O)cc2s1)[C@H]1CCCN1S(=O)(=O)c1ccc([N+](=O)[O-])cc1", "inhibition at 25 µM (%)": 51.3}
{"Molecule": "O=C(Nc1nc2cc(O)c(O)cc2s1)[C@@H]1CCCN1S(=O)(=O)c1cccc([N+](=O)[O-])c1", "inhibition at 25 µM (%)": 23.5}
{"Molecule": "O=C(Nc1nc2cc(O)c(O)cc2s1)[C@H]1CCCCN1S(=O)(=O)c1ccccc1[N+](=O)[O-]", "inhibition at 25 µM (%)": 9.5}
{"Molecule": "O=C(Nc1nc2cc(O)c(O)cc2s1)[C@@H]1CCCCN1S(=O)(=O)c1ccccc1C(F)(F)F", "inhibition at 25 µM (%)": 41.7}
{"Molecule": "O=C(Nc1nc2cc(O)c(O)cc2s1)[C@H]1CCCCN1S(=O)(=O)c1ccccc1C(F)(F)F", "inhibition at 25 µM (%)": 18.5}
{"Molecule": "O=C(Nc1nc2cc(O)c(O)cc2s1)[C@@H]1CCCN1S(=O)(=O)c1ccccc1[N+](=O)[O-]", "inhibition at 25 µM (%)": 18.5}
{"Molecule": "O=C(Nc1nc2cc(O)c(O)cc2s1)[C@@H]1CCCN1S(=O)(=O)c1cccc(C(F)(F)F)c1", "inhibition at 25 µM (%)": 46.6}
{"Molecule": "O=C(Nc1nc2cc(O)c(O)cc2s1)[C@@H]1CCCN1S(=O)(=O)c1ccccc1C(F)(F)F", "inhibition at 25 µM (%)": 27.7}
{"Molecule": "O=C(Nc1nc2cc(O)c(O)cc2s1)[C@H]1CCCCN1S(=O)(=O)c1ccc(C(F)(F)F)cc1", "inhibition at 25 µM (%)": 38}
{"Molecule": "O=C(Nc1nc2cc(O)c(O)cc2s1)[C@@H]1CCCN1S(=O)(=O)c1ccc(C(F)(F)F)cc1", "inhibition at 25 µM (%)": 19.5}
{"Molecule": "O=C(Nc1nc2cc(O)c(O)cc2s1)[C@H]1CCCN1S(=O)(=O)c1cccc([N+](=O)[O-])c1", "inhibition at 25 µM (%)": 26.9}
{"Molecule": "O=C(Nc1nc2cc(O)c(O)cc2s1)[C@@H]1CCCN1S(=O)(=O)c1ccc([N+](=O)[O-])cc1 [Compound 7, reference compound]", "inhibition at 25 µM (%)": 43}

====

// values below are reported pEC50
- Measured Target: DENV-2 NS2B-NS3 protease (Dengue virus type 2, UniProt P29990)
- Sequence (P29990 1346-1653): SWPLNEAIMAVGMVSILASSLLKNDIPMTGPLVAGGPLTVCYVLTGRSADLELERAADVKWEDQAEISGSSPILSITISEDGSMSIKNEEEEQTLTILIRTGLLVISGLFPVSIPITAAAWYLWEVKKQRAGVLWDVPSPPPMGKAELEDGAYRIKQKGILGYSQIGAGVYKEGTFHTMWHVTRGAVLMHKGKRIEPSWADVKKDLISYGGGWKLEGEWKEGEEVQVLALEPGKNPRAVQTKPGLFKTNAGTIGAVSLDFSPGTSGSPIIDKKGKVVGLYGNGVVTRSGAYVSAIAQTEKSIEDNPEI
- Assay Procedure: DENV2 Reporter Gene Assay (DENV2proHeLa)
- Measurement Context: HeLa reporter cells, 24 h; read-out: DENV2 proHeLa EC50
pEC50: −log10 of the molar value.
Quantity Kind: pEC50

{"Smiles": "O=C(Nc1nc2cc(O)c(O)cc2s1)[C@@H]1CCCCN1S(=O)(=O)c1ccc([N+](=O)[O-])cc1", "Numeric Value": 4.87}
{"Smiles": "O=C(Nc1nc2cc(O)c(O)cc2s1)[C@@H]1CCCCN1S(=O)(=O)c1ccc(C(F)(F)F)cc1", "Numeric Value": 4.69}
{"Smiles": "O=C(Nc1nc2cc(O)c(O)cc2s1)[C@@H]1CCCCN1S(=O)(=O)c1cccc([N+](=O)[O-])c1", "Numeric Value": 4.66}
{"Smiles": "O=C(Nc1nc2cc(O)c(O)cc2s1)[C@@H]1CCCCN1S(=O)(=O)c1cccc(C(F)(F)F)c1", "Numeric Value": 4.89}
{"Smiles": "O=C(Nc1nc2cc(O)c(O)cc2s1)[C@H]1CCCCN1S(=O)(=O)c1cccc([N+](=O)[O-])c1", "Numeric Value": 5.29}
{"Smiles": "O=C(Nc1nc2cc(O)c(O)cc2s1)[C@H]1CCCCN1S(=O)(=O)c1ccc([N+](=O)[O-])cc1", "Numeric Value": 5.05}
{"Smiles": "O=C(Nc1nc2cc(O)c(O)cc2s1)[C@H]1CCCCN1S(=O)(=O)c1cccc(C(F)(F)F)c1", "Numeric Value": 5.28}
